The origin of these recorded values is PubChem BioAssay (NCI).

- System: A549/ATCC NSCLC
- Assay: NCI-60 one-dose screen, 48 h (100 = growth as untreated, 0 = no growth, -100 = all killed)
- Condition Summary: 10 µM unless noted
The panel holds about 83,000 compounds, 20% with a hit somewhere; the sample as a whole holds those more often.
Below, each of the compounds is paired with its reported growth value.
Value expressed in %; do not type the unit.

C=C(CNCCO)[C@@H]1CC[C@]2(CO)CC[C@]3(C)[C@H](CC[C@@H]4[C@@]5(C)CCC(N)C(C)(C)[C@@H]5CC[C@]43C)[C@@H]12 (some centres undefined) :: 36.2

Incoming: growth lookup needed for `N#C/C(=C\c1ccc([N+](=O)[O-])cc1)n1nnc2cc(F)c(F)cc21` , thanks.
Outgoing: 64.5

Incoming: Which growth reading was recorded for the compound `CC1(C)N=C(N)N=C(N)N1c1cccc(CCc2ccccc2)c1` ?
Outgoing: 24.8

Incoming: Request the reported growth associated with COC(=O)C(Cc1ccccc1)NC(=O)c1ccc(NC(=O)c2[nH]c(C)c(Cl)c2Cl)c(OC(C)C)c1 (centres undefined)
Outgoing: 6.57

###

- System: LOX IMVI melanoma
- Assay: NCI-60 one-dose screen, 48 h (100 = growth as untreated, 0 = no growth, -100 = all killed)
- Condition Summary: 10 µM unless noted
Compounds without any hit were thinned out: in the full panel of roughly 83,000, 20% have a hit.
Observed Property: growth (%)
Reply with just the number (in %).

As a guide, the following entries are already answered.
CCO/C=N/C1=C(C#N)C(c2ccc(F)cc2)c2sc3c(F)cccc3c2O1 (centres undefined) :: 36
CCN1CCN(CC(=O)Nc2nc3ccc(NCc4ccc(F)cc4)cc3s2)CC1 :: 78.6
O=C1Nc2ccccc2/C1=C/c1cccn1C(=O)c1ccc(Cl)s1 :: 79.2
O=C(Nc1ccccc1[N+](=O)[O-])c1ccc(Cl)c(Cl)c1 :: 85.9

Incoming: Given the entry `COc1ccc2c(c1)/C(=N/c1n[nH]c(=S)s1)C(=O)N2` , report its measured growth.
Outgoing: 95.8

Incoming: Fill blank: measured growth of the compound `O=C(/C=C(O)/C=C/c1cccc2[nH]ccc12)/C=C/c1cccc2[nH]ccc12` is ____.
Outgoing: 63.7

Incoming: Could you tell me which growth is on file for `C/C=C(/C)n1cnc2c(Nc3ccccn3)nc(Cl)nc21` ?
Outgoing: 95.3

Incoming: # query: growth of entry `Cc1ccnc(Nc2ccc([N+](=O)[O-])c(NCCN3CCOCC3)n2)c1`
Outgoing: 22.8

Incoming: Quick one: growth for `O=C(CC(=O)Nc1cccc(C(=O)O)c1)Nc1cccc(C(=O)O)c1` ?
Outgoing: 103

Incoming: For the compound `CN(C)CCN1C(=O)c2cccc3c(/C=C/CN4C(=O)c5cccc6cccc(c56)C4=O)ccc(c23)C1=O` , what growth is on record?
Outgoing: 30.3

###

- Tested on: U251 CNS
- Assay: NCI-60 one-dose screen, 48 h
- Condition Summary: 10 µM unless noted
Compounds without any hit were thinned out: in the full panel of roughly 83,000, 20% have a hit. Active and inactive are the calls of the source. Rule for the calls: active = growth percent below 10; inactive = the rest.
Give your call using only these classes: yes (1) (active), no (0) (inactive)

// below: answered compounds
Cc1nn(-c2ccccc2)c(N)c1N=C1NC(=O)/C(=C/c2ccc(Br)cc2)S1 :: no (0)
Cn1cc(-c2csc(-c3c[nH]c4ccc(F)cc34)n2)c2ccnc(Cl)c21 :: no (0)
CCN1C(=O)N(CC)C2C1NC(=S)N2/N=C/c1ccc(OC)cc1 (centres undefined) :: no (0)
CCN(CC)CCN1C(=O)c2c(c(C)c3c(oc4ccc(OC)cc43)c2C)C1=O :: no (0)
CCNC(=O)Oc1ccc(/C(=C(/CC)Cc2ccccc2)c2ccc(OCCN3CCCC3)cc2)cc1 :: no (0)
O=C(NNC(=O)c1ccc(NC(=O)c2ccccn2)cc1)Nc1ccc2ccccc2c1 :: no (0)

Incoming: Fill in: this test's call for CC(=O)OC(c1ccccc1)C1CCOC1=O (centres undefined) is ___
Outgoing: no (0)

Incoming: Short answer needed: outcome of this test for `COc1cc2c(cc1OCCCCN1CCN(C(=S)SCCC(C#N)(c3ccccc3)c3ccccc3)CC1)N=C[C@@H]1CCCN1C2=O` ?
Outgoing: yes (1)

Incoming: State the result this test recorded for `O=C1/C(=C/c2ccccc2F)CN(C(=O)C(Cl)Cl)C/C1=C\c1ccccc1F` .
Outgoing: yes (1)

Incoming: What call does the record list for `COc1ccc(C#Cc2ccc(=O)oc2-c2cc(OC)c(OC)c(OC)c2)cc1O` ?
Outgoing: no (0)

Incoming: Dear colleague, could you share the recorded outcome for `CCn1c(-c2cc3c([nH]c4ccccc43)c(-c3cccc(O)c3)n2)n[nH]c1=S` when you have a moment?
Outgoing: no (0)

Incoming: What did the test return for `C[C@H](CCCC(=O)NCC#CCN1CCN(C)CC1)[C@H]1CC[C@H]2[C@@H]3CC[C@@H]4CC(=O)CC[C@]4(C)[C@H]3CC[C@]12C` ?
Outgoing: no (0)

Incoming: Field: outcome | Entry: CCCCCN(CCCCC)CC(O)c1cc(C)c2ccc3cc(C(C)C)ccc3c2c1 (centres undefined)
Outgoing: yes (1)

###

- Tested on: SN12C renal
- Assay: NCI-60 one-dose screen, 48 h
- Condition Summary: 10 µM unless noted
About 83,000 compounds went through this panel and 20% of them were active in at least one assay; those are over-represented in the sample as a whole. The source made the active and inactive calls. How the source made its calls: active means growth percent below 10; inactive means the rest.
// allowed return values: active, inactive

COc1ccc(/C=C2\CN(C(=O)C(Cl)Cl)C/C(=C\c3ccc(OC)cc3)C2=O)cc1 :: active

Incoming: Hi, sorry to bother you, what did the test record for `O=C(NNC(=O)c1nc2cc(F)ccc2n2cccc12)c1cnccn1` ?
Outgoing: inactive

Incoming: What call does the record list for COc1ccc(C2CC(c3cc(OC)c(OC)c(OC)c3)=NO2)cc1OCCCCOc1cc2c(cc1OC)C(=O)N1CCC[C@H]1C=N2 (stereo partly specified) ?
Outgoing: inactive

Incoming: Could you kindly confirm the outcome this assay logged for `COc1ccc(/C=C/c2c(C(=O)/C=C/c3ccccc3)c(C)nc3ccccc23)cc1` ?
Outgoing: inactive

Incoming: // return assay outcome for CC1C=CC(OC(=O)C(C)(O)CCC(O)(C(=O)OC2CC(O)C(C(C)C)CC2(C)O)C(C)C)(C(C)C)CC1 (stereo unspecified)
Outgoing: active

Incoming: Hey, what did the test say about `CN1CCN(Cc2ccc(NC(=O)c3cncc(C#Cc4cnc(N)c5ncccc45)c3)cc2C(F)(F)F)CC1` ?
Outgoing: active

Incoming: // return assay outcome for `O=S1(=O)C=C(c2ccccc2)C(c2ccccc2)=C1`
Outgoing: inactive

Incoming: Just curious, what result did `CCSc1oc(C)nc1[P+](c1ccccc1)(c1ccccc1)c1ccccc1` get here?
Outgoing: inactive

Incoming: Outcome logged for `O=C1/C(=C/c2ccccc2F)CN(C(=O)C(Cl)Cl)C/C1=C\c1ccccc1F` in this assay:
Outgoing: active

Incoming: Check the results log: what was the call for CCOC(=O)CC1CSC(Nc2ccccc2)=N1 (stereo unspecified) ?
Outgoing: inactive

Incoming: Would you mind telling me which call this test gave `O=C1Nc2c(C(=O)O)cccc2/C1=N/c1n[nH]c(=S)s1` ?
Outgoing: inactive

###

- System: T-47D breast
- Assay: NCI-60 one-dose screen, 48 h (100 = growth as untreated, 0 = no growth, -100 = all killed)
- Condition Summary: 10 µM unless noted
This is part of a sample that, as a whole, favours compounds with a hit. Of some 83,000 tested, about 20% had one in any assay.
Observed Property: growth (%)
Expressed in %, but write only the number.

CCN1CCN(CC(=O)Nc2ccc(-c3cn4c(n3)sc3cc(Oc5ccnc(C(=O)NC)c5)ccc34)cc2)CC1 :: 32.8

Now for another entry.
Incoming: Can you look up the measured growth of `CCCCCCCC/C=C\CCCCCCCCOc1ccc(CC(=O)NCC[N+]2(C)CCOCC2)cc1` for me?
Outgoing: 84.2

###

- System: HCT-15 colon
- Assay: NCI-60 one-dose screen, 48 h (100 = growth as untreated, 0 = no growth, -100 = all killed)
- Condition Summary: 10 µM unless noted
Compounds without any hit were thinned out: in the full panel of roughly 83,000, 20% have a hit.
Strictly below 60% in growth: class 1. Otherwise: class 0.

These solved cases illustrate the format of a correct answer.
COc1ccc(/C=C/C(c2cc(OC)c(OC)c(OC)c2)n2cncn2)cc1 (stereo not given) :: class 1
C=C1C(=O)O[C@H]2[C@H]1CC/C(COC(=O)CSCSCC(=O)OC/C1=C/CC[C@@]3(C)O[C@H]3[C@H]3OC(=O)C(=C)[C@@H]3CC1)=C\CC[C@@]1(C)O[C@@H]21 :: class 1
COc1ccc(N2CCN(C(=O)c3sc4nc(C)c(Br)c(C)c4c3N)CC2)cc1 :: class 0
COc1ccc(CNc2c3ccccc3nc3ccccc23)c(OC)c1 :: class 1
COC(=O)c1c2c(c(C)[n+]([O-])c1C)C(=O)C(NCc1ccc(OC)cc1)=CC2=O :: class 1

Incoming: growth strictly < 60% for this compound? `CN1CCN(C(=O)[C@@]2(C)CC[C@]3(C)CC[C@]4(C)C(=CC[C@@H]5[C@@]6(C)CCC(=O)NC(C)(C)[C@@H]6CC[C@]54C)[C@@H]3C2)CC1`
Outgoing: class 1
